The reader will find reported pKi values listed item by item below.
- Test system: Carbonic anhydrase 9 (Homo sapiens, UniProt Q16790)
Worth noting: pKi values are minus log10 of concentrations stated in mol/L.

For orientation, consider the following solved cases.
Using the record for O=S1(=O)C=Cc2cc(-c3ccc(Cl)c(Cl)c3)ccc2O1 , state its measured pKi. 8.03

Using known records, supply pKi for Cc1ccccc1-c1ccc2c(c1)C=CS(=O)(=O)O2 7.15

Give the reported pKi for this compound. CC(C)Oc1ccc(-c2ccc3c(c2)C=CS(=O)(=O)O3)cc1 8.01

Using known records, supply pKi for O=S1(=O)C=Cc2cc(-c3cccc(F)c3)ccc2O1 7.99

Find the measured pKi of Cc1ccc(-c2ccc3c(c2)C=CS(=O)(=O)O3)cc1 and report it. 7.11

Further cases:
Provide one value: measured pKi of COc1ccc(-c2ccc3c(c2)C=CS(=O)(=O)O3)cc1 7.15

Please list pKi recorded for the compound O=S1(=O)C=Cc2cc(-c3ccc(OC(F)(F)F)cc3)ccc2O1 7.12

Provide one value: measured pKi of O=S1(=O)C=Cc2cc(-c3ccccc3)ccc2O1 7.22
